- Tested on: IL-1β release from THP-1 cells
- assayOverview: IL-1β release assay in differentiated THP-1 cells stimulated with BzATP (ELISA)
- Assay type: cell-based
- conditionNotes: Homo sapiens, released IL-1β as in Example 9, four parameter logistic fit, read-out: IL-Iβ IC50
- Procedure: THP-1 cells (ATCC Cat #285-IF-100) are plated in 96 well plates at a concentration of 200,000 cells per well and allowed to differentiate in RPMI-1640 media (ATCC Cat #30-2001) containing 10% FBS, 100 IU/mL penicillin, 100 ug/mL streptomycin, 100 ng/mL LPS and 100 ng/mL IFN-γ for 16 hours. […] 30 uL of cell supernatant is then collected and IL-113 levels determined via ELISA (R&D systems Cat. # HSLB50) according to manufacturer's recommendations using the Tecan Safire plate reader. […]
valueKind: IC50 (µM)

A selection of reference data follows.
Q: I'm curious: which IC50 was measured for "C[C@H](C(N)=O)n1ccc2c(C(=O)NCC34CC5CC(CC(C5)C3)C4)cccc2c1=O" tested on IL-1β release from THP-1 cells?
A: 0.00015

Q: Give the reported IC50 for "O=C(NCc1ccc(F)c(Cl)c1)c1cccc2c(=O)n(C3CC3)ccc12" (system: IL-1β release from THP-1 cells).
A: 0.151

Q: Look up IC50 with IL-1β release from THP-1 cells for this compound: "O=C(NCC1CCCCCC1)c1cccc2c(=O)n(C(CO)CO)ccc12"
A: 0.0392

[I] CC1(C)CCCC(O)(CNC(=O)c2cccc3c(=O)n(CCO)ccc23)C1 (stereo not drawn)
[II] O=C(NCc1ccc(Cl)c(Cl)c1)c1cccc2c(=O)n(C3CC3)ccc12
Q: Of I and II , whose reported IC50 is numerically smaller? # answer = label of selected item
A: II

[P] C[C@H](C(N)=O)n1ccc2c(C(=O)NCC3CCCCCC3)cccc2c1=O
[Q] C[C@H](CO)n1ccc2c(C(=O)NCc3ccc(C(F)(F)F)cc3)cccc2c1=O
[R] O=C(NCC1(O)CCCCCC1)c1cccc2c(=O)n(CC3CCOCC3)ccc12
Q: Output the entries ranked by IC50 from maximum down to minimum. List each label, following the requested order.
A: Q, R, P

Where do the numbers come from? From patent US8779144B2.
